- Target Of Assay: von Hippel-Lindau disease tumor suppressor/SWI/SNF-related matrix-associated actin-dependent regulator of chromatin subfamily A member 4 (Homo sapiens, UniProt P51532+P40337)
- Sequence (P40337 whole entry, looked up): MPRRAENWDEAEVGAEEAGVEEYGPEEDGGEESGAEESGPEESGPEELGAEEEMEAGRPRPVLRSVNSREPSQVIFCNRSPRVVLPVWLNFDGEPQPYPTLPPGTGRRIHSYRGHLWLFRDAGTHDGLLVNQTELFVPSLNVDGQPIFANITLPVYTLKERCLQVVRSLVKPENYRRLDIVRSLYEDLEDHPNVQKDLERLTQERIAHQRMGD
- Sequence (P51532 whole entry, looked up): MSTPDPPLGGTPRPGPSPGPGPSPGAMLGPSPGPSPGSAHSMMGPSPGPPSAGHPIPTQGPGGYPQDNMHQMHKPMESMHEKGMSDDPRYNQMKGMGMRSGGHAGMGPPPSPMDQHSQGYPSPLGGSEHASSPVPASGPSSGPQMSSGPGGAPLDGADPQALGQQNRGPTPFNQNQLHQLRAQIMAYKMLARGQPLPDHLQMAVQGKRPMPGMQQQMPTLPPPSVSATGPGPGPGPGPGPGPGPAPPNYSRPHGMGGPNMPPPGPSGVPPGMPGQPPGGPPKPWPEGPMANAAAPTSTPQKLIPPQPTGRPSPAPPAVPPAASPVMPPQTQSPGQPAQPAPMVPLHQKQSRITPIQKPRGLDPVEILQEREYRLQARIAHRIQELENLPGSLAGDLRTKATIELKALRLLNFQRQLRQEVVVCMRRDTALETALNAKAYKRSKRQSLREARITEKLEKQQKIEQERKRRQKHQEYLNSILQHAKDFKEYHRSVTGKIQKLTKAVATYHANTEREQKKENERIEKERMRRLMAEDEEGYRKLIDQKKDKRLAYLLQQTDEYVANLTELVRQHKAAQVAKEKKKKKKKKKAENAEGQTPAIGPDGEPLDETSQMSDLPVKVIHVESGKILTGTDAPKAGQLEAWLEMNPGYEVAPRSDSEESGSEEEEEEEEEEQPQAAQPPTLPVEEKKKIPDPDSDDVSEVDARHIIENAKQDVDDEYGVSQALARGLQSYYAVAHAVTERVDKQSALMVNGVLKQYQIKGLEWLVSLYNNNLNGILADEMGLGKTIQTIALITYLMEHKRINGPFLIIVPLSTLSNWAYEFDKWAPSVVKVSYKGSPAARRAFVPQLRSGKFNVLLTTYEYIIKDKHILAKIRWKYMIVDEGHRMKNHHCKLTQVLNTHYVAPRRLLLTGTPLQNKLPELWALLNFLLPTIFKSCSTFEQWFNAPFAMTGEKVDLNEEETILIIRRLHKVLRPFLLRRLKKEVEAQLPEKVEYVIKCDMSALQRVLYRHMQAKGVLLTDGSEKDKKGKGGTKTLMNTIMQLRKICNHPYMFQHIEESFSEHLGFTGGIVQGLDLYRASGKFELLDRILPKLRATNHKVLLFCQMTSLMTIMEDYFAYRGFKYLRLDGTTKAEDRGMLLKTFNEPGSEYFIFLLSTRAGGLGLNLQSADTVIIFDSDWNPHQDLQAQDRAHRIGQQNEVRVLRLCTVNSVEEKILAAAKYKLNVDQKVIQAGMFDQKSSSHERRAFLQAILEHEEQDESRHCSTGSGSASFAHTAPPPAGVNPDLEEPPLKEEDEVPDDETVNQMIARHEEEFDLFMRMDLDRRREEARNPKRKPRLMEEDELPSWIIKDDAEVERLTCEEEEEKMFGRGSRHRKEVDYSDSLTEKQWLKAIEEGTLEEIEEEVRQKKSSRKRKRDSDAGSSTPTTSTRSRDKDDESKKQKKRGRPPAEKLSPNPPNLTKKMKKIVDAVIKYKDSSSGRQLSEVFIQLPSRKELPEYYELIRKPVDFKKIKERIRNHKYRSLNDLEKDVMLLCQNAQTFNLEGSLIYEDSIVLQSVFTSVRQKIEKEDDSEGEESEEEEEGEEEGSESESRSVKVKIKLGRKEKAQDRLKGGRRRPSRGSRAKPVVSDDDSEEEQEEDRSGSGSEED
- Protocol Notes: PROTAC activity at VHL/SMARCA4 in human HT-1080 cells assessed as induction of SMARCA4 degradation by measuring maximum efficacy incubated for 6 hrs by Nano-Glo HiBiT Lytic Detection Assay relative to control
- Format: cell-based
Experimental Readout: Emax

chemical_string=Cc1ncsc1-c1ccc([C@H](C)NC(=O)[C@@H]2C[C@@H](O)CN2C(=O)[C@@H](c2cc(N3CCC(CN4CCC(c5ccc6c(c5)-n5c(nc(=O)c7c(Cl)cccc75)C6(C)C)CC4)CC3)no2)C(C)C)cc1 experimental_readout=Emax test_result=69%
chemical_string=Cc1ncsc1-c1ccc([C@H](C)NC(=O)[C@@H]2C[C@@H](O)CN2C(=O)[C@@H](NC(=O)[C@H]2CC[C@H](CN3CCC(c4ccc5c(c4)-n4c(nc(=O)c6c(Cl)cccc64)C5(C)C)CC3)CC2)C(C)(C)C)cc1 experimental_readout=Emax test_result=25%
chemical_string=Cc1ncsc1-c1ccc([C@H](C)NC(=O)[C@@H]2C[C@@H](O)CN2C(=O)[C@@H](NC(=O)[C@H]2CC[C@H](CN3CCC(c4ccc5c(c4)-n4c(nc(=O)c6c(Br)cccc64)C5(C)C)CC3)CC2)C(C)(C)C)cc1 experimental_readout=Emax test_result=34%
